Tested on: pyrethroid-susceptible strain of Aedes aegypti (Orlando)
Type: in vivo
Details: 1-hr, topical, alone or with FNO 5%
For each entry below, report its KD50 value.
Give bare numbers, in ng/mg.

[[record]]
compound = "CN1COCN(Cc2cnc(Cl)s2)C1=N[N+](=O)[O-]"
measured_result = 17.2

[[record]]
compound = "O=[N+]([O-])N=C1NCCN1Cc1ccc(Cl)nc1"
measured_result = 3.7

[[record]]
compound = "CNC(=N[N+](=O)[O-])NCc1cnc(Cl)s1"
measured_result = 22


Kindly give each listed record's KD50.
1. N#Cc1nn(-c2c(Cl)cc(C(F)(F)F)cc2Cl)c(N)c1[S+]([O-])C(F)(F)F (centres unmarked)
2. CC1(C)C(C=C(Cl)Cl)C1C(=O)OCc1cccc(Oc2ccccc2)c1 (racemic)

10.7
0.06
